Recorded Rel EC50 for the following binders
- targetOrTestSystem: T1, Recombinant DR3-Fc (R&D Systems, cat. #943-D3) (UniProt Q93038 25-199, limits assumed)
- T1 construct: dimeric MW~92 kDa; also called DR3 receptor; Fc-DR3; not shown: Fc part of the bought fusion
- T1 sequence (looked up): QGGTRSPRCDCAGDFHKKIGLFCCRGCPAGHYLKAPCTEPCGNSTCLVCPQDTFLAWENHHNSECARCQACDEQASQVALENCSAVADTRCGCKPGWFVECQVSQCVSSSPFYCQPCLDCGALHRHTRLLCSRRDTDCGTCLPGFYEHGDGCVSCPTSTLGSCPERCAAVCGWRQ
- runDescription: ELISA, DR3-Fc immobilized

TL1W111 (His-TEV-TL1A S187D) (ligand, also called TL1W111 (S187D)) HHHHHHENLYFQGLKGQEFAPSHQQVYAPLRADGDKPRAHLTVVRQTPTQHFKNQFPALHWEHELGLAFTKNRMNYTNKFLLIPESGDYFIYSQVTFRGMTSECSEIRQAGRPNKPDSITVVITKVTDDYPEPTQLLMGTKSVCEVGSNWFQPIYLGAMFSLQEGDKLMVNVSDISLVDYTKEDKTFFGAFLL : 1.7 ratio (head: nM)

Shift focus to the following entry.
Recorded Rel EC50 of TL1W30 (His-TEV-hTL1A 72-251 N112E) (ligand, also called TL1W30 (N112E)) HHHHHHENLYFQGLKGQEFAPSHQQVYAPLRADGDKPRAHLTVVRQTPTQHFKEQFPALHWEHELGLAFTKNRMNYTNKFLLIPESGDYFIYSQVTFRGMTSECSEIRQAGRPNKPDSITVVITKVTDSYPEPTQLLMGTKSVCEVGSNWFQPIYLGAMFSLQEGDKLMVNVSDISLVDYTKEDKTFFGAFLL , please.
0.6 ratio (head: nM)
